B1: TRIM63 (parent)
chain: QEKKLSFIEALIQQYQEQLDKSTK

# Variants of: B1
# ASSAY METHOD TEXT: protein stability index of a GFP-peptide fusion (GPS, HEK-293T) (PSI 1-6); higher = more stable;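 note: lentivirally expressed fusions sorted by FACS into six bins by GFP to DsRed ratio, PSI derived from sequencing read proportions per bin multiplied by bin number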
# RUN CONDITIONS: c terminus: a fixed tail appended
MEASUREMENT TYPE: protein stability index
Answers are plain numbers.

A10V | 2.38
E17C | 2.47
L5P | 3.58
I8D | 4.44
Q14I | 2.98

// input: 4 variants below; output: protein stability index for each
1. K4W
2. I12V
3. I8G
4. K4F

1: 1.85; 2: 2.6; 3: 5.05; 4: 2.18
